The reported numbers originate from ChEMBL document CHEMBL2401652.

assay: Cytotoxicity against human HEK293T cells assessed as cell viability at 60 uM after 24 hrs by MTT assay relative to control; format: cell-based, HEK-293T; conditions: read-out: Activity
quantity name: viability at 24 h, 60 µM

Returns the measured viability at 24 h, 60 µM for the input molecule. Input: CC(C)=CCCC1(C)C=Cc2c(c(C)cc3c2[nH]c2cc(O)ccc23)O1 (stereo unspecified) > 65%

---

experiment: Cytotoxicity against human U373MG cells assessed as growth inhibition after 48 hrs by MTT assay; settings: U373 MG
quantity name: IC50

So what does the record say about IC50 for CC(C)=CCC[C@]1(C)C=Cc2c(c(C)cc3c2[nH]c2ccccc23)O1 ? 25 µM

---

tested on: REH; test: Cytotoxicity against human REH cells assessed as growth inhibition after 48 hrs by MTT assay
quantity name: pIC50
Answers are plain numbers, as −log10 of the molar value.

REH / pIC50 / CC(C)=CCC[C@]1(C)C=Cc2c(c(C)cc3c2[nH]c2ccccc23)O1 : value? 4.60

---

system: A549; assay: Cytotoxicity against human A549 cells assessed as growth inhibition after 48 hrs by MTT assay; conditions: A549, 48 h
quantity name: IC50 (µM)
Numbers only, in µM.

Give the measured IC50 of CC(C)=CCC[C@]1(C)C=Cc2c(c(C)cc3c2[nH]c2ccccc23)O1 . 25

---

system: ASPC1; test: Cytotoxicity against human AsPC1 cells assessed as growth inhibition after 48 hrs by MTT assay; conditions: ASPC1, 48 h
quantity name: IC50 (µM)
One number for each entry, in µM.

Bench note: what IC50 did CC(C)=CCC[C@]1(C)C=Cc2c(c(C)cc3c2[nH]c2ccccc23)O1 show? 25
